Reference source for all entries: patent US20260297042A1

assayed_system: Human PKMYT1 (Homo sapiens, UniProt Q99640)
Construct: Human PKMYT1 75-362 was cloned as a TEV cleavable 6xHis fusion; 6xHis (TEV cleavable) (cleaved yes); made in house; host or cells: bacterial cells
experiment_notes: PKMYT1 biochemical ADP-Glo enzymatic assay
test_parameters: ADP-Glo; 15 nM PKMYT1 kinase domain, 500 µM ATP, 60 minutes at 26° C.; banded
Procedure: Human PKMYT1 75-362 was cloned as a TEV cleavable 6xHis fusion in bacterial cells. After purification on a Ni++HiTrap Chelating HP column, the His-tag was cleaved using TEV protease. […] PKMYT1 biochemical assay: Inhibition of PKMYT1 was assessed using the ADP-Glo™ Max Detection System from Promega. […] Inhibition of PKMYT1 by small molecule inhibitors results in a retardation of luminescence above background. The intrinsic ATPase activity of PKMYT1 was assessed according to the following protocol. […]
pIC50: −log10 of the molar value.
Known pIC50 of a selection of compounds

Record excerpt, results attached:
{"columns": ["compound", "result"],
 "data": [
  ["CCCn1ccc(Nc2ncc(C(=O)Nc3c(C)ccc(O)c3C)s2)n1", "6.00 to 7.30"],
  ["Cc1ccc(O)c(C)c1NC(=O)c1cnc(Nc2ccc(C(F)(F)F)cc2)s1", "4.96 to 6.00"]
]}

Entry "Cc1ccc(O)c(C)c1NC(=O)c1cnc(Nc2cc(C(=O)O)nn2C)s1" has what pIC50?
6.00 to 7.30

Find the recorded pIC50 belonging to "Cc1cn(-c2ccccn2)nc1Nc1ncc(C(=O)Nc2c(C)ccc(O)c2C)s1" and report it.
> 7.30

Could you share which pIC50 value was measured for "Cc1ccc(O)c(C)c1NC(=O)c1cnc(Nc2ccn(CC(=O)N3CCC3)n2)s1" ?
> 7.30

Give the measured pIC50 of "Cc1ccc(O)c(C)c1NC(=O)c1cnc(Nc2cc(C)n(CC(=O)N3CCCC3)n2)s1" .
> 7.30

What value of pIC50 has been reported for the following compound? "Cc1cn(-c2cncc(C(F)(F)F)c2)nc1Nc1ncc(C(=O)Nc2c(C)ccc(O)c2C)s1"
6.00 to 7.30

----------
assayed_system: Human PKMYT1 (Homo sapiens, UniProt Q99640)
Construct: Human PKMYT1 75-362 was cloned as a TEV cleavable 6xHis fusion; 6xHis (TEV cleavable) (cleaved yes); made in house; host or cells: bacterial cells
Sequence (Q99640 75-362): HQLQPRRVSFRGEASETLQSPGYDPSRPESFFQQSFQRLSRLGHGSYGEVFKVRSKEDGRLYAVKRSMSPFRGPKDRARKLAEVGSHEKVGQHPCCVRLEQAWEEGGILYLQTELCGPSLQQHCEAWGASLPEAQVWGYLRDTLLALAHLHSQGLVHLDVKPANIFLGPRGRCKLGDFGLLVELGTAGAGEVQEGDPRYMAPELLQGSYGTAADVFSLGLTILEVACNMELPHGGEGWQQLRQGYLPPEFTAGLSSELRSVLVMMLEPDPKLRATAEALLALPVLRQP
experiment_notes: PKMYT1 biochemical ADP-Glo enzymatic assay
test_parameters: ADP-Glo; 15 nM PKMYT1 kinase domain, 500 µM ATP, 60 minutes at 26° C.; banded
Quick reference: IC50 of the listed items.

Give its IC50 value. Item: Cc1ccc(NC(=O)NC(C)(C)C)nc1Nc1ncc(C(=O)Nc2c(C)ccc(O)c2C)s1.Cl [BAA-336, hydrochloride]
50 to 1000 nM

Record request: IC50 value, item "Cc1ccc(O)c(C)c1NC(=O)c1cnc(Nc2cc(C)n(CCC(N)=O)n2)s1"
50 to 1000 nM

Data request, read-out IC50, for "Cc1ccc(O)c(C)c1NC(=O)c1cnc(Nc2ccn(CC(=O)NCCN3CCOCC3)n2)s1"
50 to 1000 nM

Entry "Cc1ccc(O)c(C)c1NC(=O)c1cnc(Nc2ccn(CC(=O)N3CC[C@@H](O)C3)n2)s1" has what IC50?
< 50 nM
